# System: HIV-1 infection of TZM-bl cells
# testMethodNotes: HIV-1 infectivity enhancement assay, β-galactosidase luminescence
# Type: cell-based
# experimentalContext: Feb2021; infectivity enhancement relative to EF-C
Classify: Satisfied when Rel-to EFC (Feb-2021) is strictly less than 0.4; Not satisfied when Rel-to EFC (Feb-2021) is not.

Would you kindly verify if Rel-to EFC (Feb-2021) of QCKFKQFFNM [CK11] is strictly less than 0.4?
Not satisfied

Subsequent entry: HHHHKIKIKIKIYYYY [TM6]
Not satisfied

Subsequent entry: CKFKFQFW [TM72]
Not satisfied

Subsequent entry: CEFEFQFNMWQ [TM140]
Satisfied

Subsequent entry: KFKFQFW [TM71]
Satisfied

###

# testMethodNotes: Zeta-potential measurement
# Type: physicochemical
// map Zeta Pot. / mV to label using bin A: < 6 mV; bin B: ≥ 6 mV and < 10 mV; bin C: ≥ 10 mV

Lab note: sort KIKIKIQI [TG13] into the matching Zeta Pot. / mV band.
bin B

Subsequent entry: KAKQAANMWQ [JG6]
bin A

Subsequent entry: KFKFQFFF [TG12]
bin C

Subsequent entry: RLRLTLC [CN13]
bin C

Subsequent entry: KFKFKFQF [TG18]
bin C

Subsequent entry: KLKLKLQL [TG16]
bin B

Subsequent entry: CKFKQFFNM [CK14]
bin C

Subsequent entry: QCKFKQFF [CK12]
bin A

Subsequent entry: HHHHKAKAKAKAYYYY [TM10]
bin B

Subsequent entry: KVKVKVQV [JG14 / TG14]
bin A

Subsequent entry: CKIKQII [MG4a]
bin A

Subsequent entry: CKFKQFF [CK15]
bin C

Subsequent entry: RGEKIKIQINM [CN18]
bin C

Subsequent entry: KFKFQFW [TM71]
bin B

Subsequent entry: QCKIKQIINM [CK5]
bin C

Subsequent entry: QCKIKQII [CK6]
bin C

Subsequent entry: KFKQFFNMWQ [JG5]
bin A

Subsequent entry: QCKFKQFFNM [CK11]
bin C

Subsequent entry: CKIKQIINM [BL1]
bin C

Subsequent entry: RGDCKFKFQF [TM64/ CN15]
bin C

Subsequent entry: QCKIKQIINMWQ [reference compound]
bin B

Subsequent entry: HIHIQIC [CN12]
bin A

Subsequent entry: KIKIQII [TG1 / (KM4)]
bin A

Subsequent entry: CKFKQFFNMWQ [CK13]
bin B

Subsequent entry: CKIKQIINMWQ [MG5a / CK17]
bin C

Subsequent entry: HHHHKIKIKIKIWWWW [TM4]
bin C

Subsequent entry: KVKVQVV [TG2]
bin A

Subsequent entry: KIKQIINMWQ [JG2]
bin C

Subsequent entry: HLHLPLL [CN14]
bin A

###

Answer each item with its documented Absolute Infectivity / RLU /s (Feb2021).
# System: HIV-1 infection of TZM-bl cells
# testMethodNotes: HIV-1 infectivity enhancement assay, β-galactosidase luminescence
# Type: cell-based
# experimentalContext: Feb2021; figures match the 1.3 µM column
Quick note: number first, unit second.

Consider the substance HHHHKIKIKIKIYYYY [TM6] and give its measured Absolute Infectivity / RLU /s (Feb2021).
20713.33333 RLU /s

Subsequent entry: KFKFQFW [TM71]
4953 RLU /s

Subsequent entry: KFKFQFFF [TG12]
8657 RLU /s

Subsequent entry: RGEKIKIQINM [CN18]
7838 RLU /s

###

# testMethodNotes: Turbidity, derived count rate of scattered light
# Format: physicochemical
# experimentalContext: category 1 / 0, no key given
propertyName: Zeta Count Rate Category
API note: the answer field is a bare number with no unit suffix.

Consider the sequence KVKVQVVV [TG8] and give its measured Zeta Count Rate Category.
1

Subsequent entry: KFKFQFFF [TG12]
1

Subsequent entry: QCKFKQFFNMWQ [CK10]
1

###

Answer each item with its documented Zeta-pot. / mV.
# testMethodNotes: Zeta-potential measurement
# Type: physicochemical
# experimentalContext: zeta potential of peptide; Fig S15 source data
The figure you give is taken to be in mV; do not add the unit.

Consider the substance RLRLTLC [CN13] and give its measured Zeta-pot. / mV.
19.67

Subsequent entry: CKFKFQF [BL4]
19.73

Subsequent entry: ILKNLSRSRKIKIQINMWQ [TM92]
19.2

Subsequent entry: QCKAKAQA [CK24]
0.674

Subsequent entry: CEIEIQI [AR2/ TM142]
-26.1

Subsequent entry: KIKIKIKIWW [TM21]
15.4

Subsequent entry: MKIKIQINMWQ [TM52]
10.8

Subsequent entry: HGDKCHGDKC [CN2]
-11.63

Subsequent entry: CEIEIQINM [TM144]
-15.3

Subsequent entry: KVKGVGK [CN27]
-12.8

Subsequent entry: CKAKAQA [TM155]
-8.01

Subsequent entry: KAKAQA [JJA2 / TM153]
-14.08

Subsequent entry: KIKIQINMW [JGB1 /TM85]
19.7

Subsequent entry: CKIKIQINM [MG2]
16.83

Subsequent entry: CKIKIQIRGD [psis21]
7.157

Subsequent entry: QCKIKQIINM [CK5]
10.4

Subsequent entry: FKFDKFKFDK [CN26]
-12.7

###

Answer each item with its documented Fibril / Fibril Formation.
# Assay type: physicochemical
# Design: key: 1 = fibrils present; 0 non-fibrillar structures
# experimentalContext: TEM, 1 mg/mL, uranyl acetate stain, qualitative
API note: the answer field is a bare number with no unit suffix.

Consider the substance `RGDSGGGGGGKIKIQIC` and give its measured Fibril / Fibril Formation.
1

Subsequent entry: `KKWWNF`
0

Subsequent entry: IKFLSVN [reference compound]
1

Subsequent entry: `CEIEIQINM`
1

Subsequent entry: `CKFKFQF`
1

Subsequent entry: IIKIIK [reference compound]
0

Subsequent entry: `KVKVQVV`
0

Subsequent entry: `KIKIQIC`
1

Subsequent entry: `IKVAVKIKIQINM`
1

Subsequent entry: `HLHLPLL`
0

Subsequent entry: `CRFRFQF`
1

Subsequent entry: `KIKIQINMWWWQ`
0

Subsequent entry: `RGDKIKIQINM`
1

Subsequent entry: `CKWKWQW`
1

Subsequent entry: `KIKIQINM`
1

Subsequent entry: `CKFKQFF`
0

Subsequent entry: `ILKNLSRSRKIKIQIC`
1

Subsequent entry: `QCKFKFQFNM`
1

Subsequent entry: `FDPFDPFDP`
0

Subsequent entry: `TKTLTKTL`
0

###

# testMethodNotes: Zeta-potential measurement
# Assay type: physicochemical
# experimentalContext: 1 mg/mL in PBS pH 7.4 from 10 mg/mL DMSO stock, 1 d RT, 60 µL diluted in 600 µL 1 mM KCl; Zetasizer Nano ZS, Smoluchowski; mean of triplicate
Answer each item with its documented Zeta pot. / mV.
The figure you give is taken to be in mV; do not add the unit.

Consider the substance `KAKLTCT` and give its measured Zeta pot. / mV.
-2.2992

Subsequent entry: `QCKAKAQANM`
-8.4

Subsequent entry: IIIQGK [reference compound]
-7.6

Subsequent entry: `CRLSLSLS`
8.977

###

Answer each item with its documented Zeta category ( +1 = if > 4 mV;-1 = if < -4 mV; 0 = -4mV to 4 mV).
# testMethodNotes: Zeta-potential measurement
# Type: physicochemical

Consider the substance CKAKAQANMWQ [BL8] and give its measured Zeta category ( +1 = if > 4 mV;-1 = if < -4 mV; 0 = -4mV to 4 mV).
0 (0 = -4mV to 4 mV)

Subsequent entry: QCKIKQIINMWQ [reference compound]
1 (+1 = if > 4 mV)

Subsequent entry: QCKIKIQI [CK3]
1 (+1 = if > 4 mV)

Subsequent entry: KIKIQINM [JGB2]
1 (+1 = if > 4 mV)

Subsequent entry: RIRIQIC [PS07]
1 (+1 = if > 4 mV)

Subsequent entry: KFKFQFNM [BL6a]
1 (+1 = if > 4 mV)

Subsequent entry: RGDKIKIQI [MG14]
0 (0 = -4mV to 4 mV)

Subsequent entry: KLKQLL [KM27 / psis14]
-1 (-1 = if < -4 mV)

Subsequent entry: KFKFQFN [BL7]
1 (+1 = if > 4 mV)

Subsequent entry: CKFKFQF [BL4]
1 (+1 = if > 4 mV)

Subsequent entry: KFKFQFNMWQ [JG4]
1 (+1 = if > 4 mV)

Subsequent entry: KFKFQF [JJA6]
-1 (-1 = if < -4 mV)

Subsequent entry: CKIKQIINM [BL1]
1 (+1 = if > 4 mV)

Subsequent entry: QCKIKIQINMWQ [EF-C opt]
1 (+1 = if > 4 mV)

Subsequent entry: QCKAKAQANMWQ [CK22]
-1 (-1 = if < -4 mV)

Subsequent entry: KFKFKFQF [TG18]
1 (+1 = if > 4 mV)

Subsequent entry: MKIKIQINMWQ [TM52]
1 (+1 = if > 4 mV)

Subsequent entry: KFKQFFNMWQ [JG5]
0 (0 = -4mV to 4 mV)

Subsequent entry: CKFKQFFNM [CK14]
1 (+1 = if > 4 mV)

Subsequent entry: MKIKIQINM [TM41]
1 (+1 = if > 4 mV)

Subsequent entry: KFKFQFF [TG6]
0 (0 = -4mV to 4 mV)

Subsequent entry: KIKIQINMWQRGD [VH17-II]
0 (0 = -4mV to 4 mV)

Subsequent entry: CKFKQFFNMWQ [CK13]
1 (+1 = if > 4 mV)

Subsequent entry: QCKIKIQINM [CK2]
1 (+1 = if > 4 mV)

Subsequent entry: CEFEFQF [KB12]
-1 (-1 = if < -4 mV)

Subsequent entry: KLKLKLQL [TG16]
1 (+1 = if > 4 mV)

Subsequent entry: KIKQIINMWQ [JG2]
1 (+1 = if > 4 mV)

Subsequent entry: KVKVQVV [TG2]
-1 (-1 = if < -4 mV)

Subsequent entry: QCKAKAQA [CK24]
0 (0 = -4mV to 4 mV)

Subsequent entry: KFKFQFW [TM71]
1 (+1 = if > 4 mV)

Subsequent entry: KAKAKAQA [TG15]
-1 (-1 = if < -4 mV)

Subsequent entry: RLRLTLC [CN13]
1 (+1 = if > 4 mV)

Subsequent entry: KYKYQY [KB1]
-1 (-1 = if < -4 mV)

Subsequent entry: KIKIKIKI [TM13]
1 (+1 = if > 4 mV)

Subsequent entry: HLHLPLL [CN14]
-1 (-1 = if < -4 mV)

Subsequent entry: KIKIQIW [TM69]
1 (+1 = if > 4 mV)

Subsequent entry: CKIKIQI [MG3b]
1 (+1 = if > 4 mV)
